Test system: MS2 coat protein
Test Description: apparent KD of MS2 coat protein; designed switch direction (-1 OFF switch, 1 ON switch): -1; higher = weaker reporter binding
Assay Conditions: input ligand: FMN 200 uM
Records here are stratified by apparent KD of MS2 coat protein; strata: low bracket = under 50 nM, middle bracket = from 50 nM up to 200 nM, high bracket = 200 nM and over

>  <Sequence String>
ACAUGUGUUGUAGGAUAUAGGAGACAUGAGGAUCACCCAUGUUGAUUCAUGUCUAUGGAAACGUCCUAGAAGGACGACAAUAUG [Ex NG2 #19] (Eterna round: R96, puzzle: Exclusion NG 2)

>  <Tested Target>
MS2 coat protein

>  <Answer Label>
high bracket

$$$$
>  <Sequence String>
CGUCAACAUGAGGAUCACCCAUGUUAGGAUAUAGAGCCAGGGCACGACGCUAACCAGUCUAGAAGGGACGUGGG [Eternabot (Original) Solution 5] (Eterna round: R97, puzzle: Exclusion 1)

>  <Tested Target>
MS2 coat protein

>  <Answer Label>
low bracket

$$$$
>  <Sequence String>
GUGGGACAUGAGGAUCACCCAUGUCAGGAUAUUUGGGCGAGAUUCGAUCUCGUUAGCCGGAGAAGGGACGUAUG [Eternabot (L2) Solution 47] (Eterna round: R97, puzzle: Exclusion 1)

>  <Tested Target>
MS2 coat protein

>  <Answer Label>
low bracket

$$$$

Q. Given AAGAACGUCGGAGGAUAUCCAGCCAAGCCCGCAGGAGAAGGCCGGCGGUGGGAUGUGCUUCACAUGAGGAUCACCCAUGUUAAU [Onriti] (Eterna round: R96, puzzle: Exclusion NG 1) , name the class its apparent KD of MS2 coat protein places it in.
A. high bracket

Q. Given GAUUAACAUGAGGAUCACCCAUGUGAGGAUAUUGACUUGCUCACUUUCCCAUUUGAGUCGAGAAGGCGCAUCUG [1986#22] (Eterna round: R97, puzzle: Exclusion 1) , name the class its apparent KD of MS2 coat protein places it in.
A. middle bracket

Q. Given GUCAGCUCGUGAGGAUAUGCACAUGAGGAUCACCCAUGUAAGAUCAAGCUGCUUCGGCAGCAAGUGCAGAAGGUACGAGCUGAU [ENG2/9-C3] (Eterna round: R96, puzzle: Exclusion NG 2) , name the class its apparent KD of MS2 coat protein places it in.
A. high bracket

Q. Given ACACUGCGAGGAUAUACAUGAGGAUCACCCAUGUUUCGGUAGACAAGGUUAAUUUAAGGUAGAAGGCGCGUAUU [JR_Ex3_Sub009] (Eterna round: R97, puzzle: Exclusion 3) , name the class its apparent KD of MS2 coat protein places it in.
A. middle bracket

Q. Given CCUCAGUAAGGAUAUCAGCUUAAGGAGGUGGUAAAGAGAGCUGAGAAGGUACAUGAGGAUCACCCAUGUUAAAA [Zatite] (Eterna round: R96, puzzle: Exclusion 4) , name the class its apparent KD of MS2 coat protein places it in.
A. middle bracket

Q. Given GUCAGACGAGGAUAUAAACGAUAUAACAUGAGGAUCACCCAUGUACGAUCGAAUGAUCGUUUAGAAGGCGUCUGAC [E5/10-A4] (Eterna round: R97, puzzle: Exclusion 5) , name the class its apparent KD of MS2 coat protein places it in.
A. low bracket
